- target-desc: ZFP SBS#964 (synthetic)
- Sequence (chain, as listed by the source): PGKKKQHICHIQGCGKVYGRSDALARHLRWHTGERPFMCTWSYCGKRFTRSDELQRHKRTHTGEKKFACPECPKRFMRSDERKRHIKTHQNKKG
- protocol: EMSA
- test-parameters: tags: MBP fusion
recorded-endpoint: Kd (nM)
Express the result in nM but write the number alone.

I'd like to know its Kd. The binder in question is GCGGCGGTG (dsDNA) DNA 1: GCGGCGGTG DNA 2: CACCGCCGC
0.041
